tested-system: chimpanzee Androgen Receptor (AR), AR (gene 747460) (UniProt O97775)
Sequence (O97775 whole entry, looked up): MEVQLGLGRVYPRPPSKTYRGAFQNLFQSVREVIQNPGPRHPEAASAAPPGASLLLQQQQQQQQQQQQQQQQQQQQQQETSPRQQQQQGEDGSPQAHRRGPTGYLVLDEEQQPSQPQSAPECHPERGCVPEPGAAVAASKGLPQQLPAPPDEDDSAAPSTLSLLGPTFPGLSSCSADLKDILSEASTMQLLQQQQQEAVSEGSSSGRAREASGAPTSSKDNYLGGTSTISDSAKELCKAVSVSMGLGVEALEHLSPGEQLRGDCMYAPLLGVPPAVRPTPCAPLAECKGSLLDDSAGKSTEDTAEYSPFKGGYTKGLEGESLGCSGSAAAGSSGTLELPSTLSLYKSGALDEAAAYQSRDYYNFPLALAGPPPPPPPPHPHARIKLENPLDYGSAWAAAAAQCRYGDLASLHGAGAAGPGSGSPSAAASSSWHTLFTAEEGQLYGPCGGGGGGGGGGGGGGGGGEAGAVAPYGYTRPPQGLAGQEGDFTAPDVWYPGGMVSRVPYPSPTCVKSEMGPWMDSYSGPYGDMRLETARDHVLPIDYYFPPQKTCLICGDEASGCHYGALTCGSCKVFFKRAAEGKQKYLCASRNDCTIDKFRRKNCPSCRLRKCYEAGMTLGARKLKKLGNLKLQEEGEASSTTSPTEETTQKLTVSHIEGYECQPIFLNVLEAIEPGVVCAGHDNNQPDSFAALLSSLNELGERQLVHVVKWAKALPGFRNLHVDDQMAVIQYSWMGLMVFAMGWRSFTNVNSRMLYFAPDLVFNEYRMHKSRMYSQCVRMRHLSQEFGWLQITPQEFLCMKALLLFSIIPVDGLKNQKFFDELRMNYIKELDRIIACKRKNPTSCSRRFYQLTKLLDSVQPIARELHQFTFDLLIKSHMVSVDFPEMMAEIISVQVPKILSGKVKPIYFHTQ
test-protocol: NVS_NR_cAR: NovaScreen (NVS) Nuclear Receptor Binding Assay for chimpanzee Androgen Receptor (AR) (AID 2283346);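 further: radioligand displacement from AR measured by scintillation counting in a cell-free assay; a loss of bound radioligand signal versus DMSO counts as binding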
Results filed as inconclusive are left out. Active and inactive are the calls of the source. How the source made its calls: active means hit-call score of the fitted dose curve at least 0.9, where 1 is the maximum; inconclusive means response in the unintended direction; inactive means score below 0.9.
Assign a class; possible classes are t for active, f for inactive

Give the logged outcome of this assay for the following compound: ClC(Cl)=C(c1ccc(Cl)cc1)c1ccc(Cl)cc1
t

Hi team, can someone confirm the assay call for N#Cc1ccc(N(CC(N)=O)CC(F)(F)F)cc1C(F)(F)F ?
t

Answer briefly: the call reported for Oc1ccc(C(c2ccc(O)cc2)(C(F)(F)F)C(F)(F)F)cc1 in this assay.
f
